- System: MOLT-4 leukemia
- ASSAY_METHOD_TEXT: NCI tumour cell line growth inhibition, 48 h
Where a SMILES comes first, the peptide text is derived from it.
So I've got a bunch of molecules here, and I need their TGI values.

Test item OCc1cn(Cc2cccc(Cl)c2)c2ccccc12 ; MOLT-4 leukemia; reported TGI was 44.4 µM

Test item COC(C/C=C\C=C\CC/C=C/CC(C)/C=C/C(=C\C(=O)O)CC(=O)O)/C(C)=C\C=C(/C)C(=O)O (stereo not given) ; MOLT-4 leukemia; reported TGI was > 100 µM

Test item Cc1ccc(S(=O)(=O)CC2CCCn3c2c(C#N)c2ccccc23)cc1 (stereo not given) ; MOLT-4 leukemia; reported TGI was > 100 µM

Test item Cn1c(O)c(/C=N/c2ncccn2)c(=O)[nH]c1=O ; MOLT-4 leukemia; reported TGI was > 100 µM

Test item Cc1ccc(C(=O)Nc2ccc(CN3CCN(C)CC3)c(C(F)(F)F)c2)cc1C#Cc1cnc(N)cc1C#N ; MOLT-4 leukemia; reported TGI was 1.08 µM

Test item OC1(C(O)(c2ccc(-c3ccccc3)cc2)c2ccc(-c3ccccc3)cc2)CCCCC1 ; MOLT-4 leukemia; reported TGI was > 100 µM

Test item O=c1cccc(C#CC#C[C@H]2O[C@@H]2CO)o1 ; MOLT-4 leukemia; reported TGI was > 100 µM

Test item Oc1ccc(O)c(Sc2nnc(CCCCCCCCc3nnc(Sc4cc(O)ccc4O)o3)o2)c1 ; MOLT-4 leukemia; reported TGI was > 100 µM

Test item COc1ccccc1-[n+]1cc(-c2ccc(-c3ccccc3)cc2)n2c1CCCCC2 ; MOLT-4 leukemia; reported TGI was 3.97 µM

Test item CC1=C([Se]CC(OC(=O)CC[Se]c2ccccc2)C(=O)NCCCCCC(=O)OCc2ccccc2)C(=O)c2ccccc2C1=O (stereo not given) ; MOLT-4 leukemia; reported TGI was 31.2 µM

Test item CCC1(O)CC(O)c2c(O)c3c(c(O)c2C1C(=O)OC)C(=O)c1cccc(O)c1C3=O (stereo not given) ; MOLT-4 leukemia; reported TGI was 2.19 µM

Test item O=c1cnc2cc3ccccc3cc2[nH]1 ; MOLT-4 leukemia; reported TGI was > 100 µM

Test item O=C1/C(=C/C=C/c2ccccc2)CCC1CNc1ccc(Br)cc1 (stereo not given) ; MOLT-4 leukemia; reported TGI was > 100 µM

Test item COc1ccc(C2C3=CONC3CC3CCCCC32)cc1 (stereo not given) ; MOLT-4 leukemia; reported TGI was > 100 µM

Test item Cc1ccc(C2(N3CCOCC3)OC(C)(C)c3cccc4cccc2c34)cc1 (stereo not given) ; MOLT-4 leukemia; reported TGI was > 100 µM

Test item CN1CCCC(OC(=O)c2cc3cc(CCl)ccc3oc2=O)C1 (stereo not given) ; MOLT-4 leukemia; reported TGI was 98 µM

Test item COc1ccc(-n2c(SCc3cc(OC)c(OC)c(OC)c3)nc3ccc(C)cc3c2=O)c(OC)c1 ; MOLT-4 leukemia; reported TGI was > 100 µM

Test item COc1ccc(Nc2nc(NNC(=O)Cc3ccccc3)nc(NNC(=O)c3ccncc3)n2)cc1 ; MOLT-4 leukemia; reported TGI was > 10 µM

Test item CCCCN(CCCC)C1=Nc2ccccc2-n2c(nnc2C(=O)OCC)C1 ; MOLT-4 leukemia; reported TGI was 84.1 µM

Test item NC(=O)c1cnc(N[C@@H]2CCCC[C@@H]2N)nc1Nc1cccc(-n2nccn2)c1 ; MOLT-4 leukemia; reported TGI was 12.7 µM

Test item COc1cccc(OC/C(N=Cc2ccncc2)=N/NC(=O)c2ccncc2)c1 ; MOLT-4 leukemia; reported TGI was > 100 µM

Test item O=P1(N(CCCl)CCCl)NCCCO1 (stereo not given) ; MOLT-4 leukemia; reported TGI was > 250 µM

Test item O=C(O)CNc1c2ccccc2nc2ccccc12 ; MOLT-4 leukemia; reported TGI was > 100 µM

Test item N#Cc1c(C(=O)c2ccccc2)cnn1-c1ccccc1 ; MOLT-4 leukemia; reported TGI was > 25 µM

Test item O=C(O)c1cc2ccccc2c(O)c1O ; MOLT-4 leukemia; reported TGI was > 66.8 µM

Test item Cc1c(C#N)cccc1-c1cc(-c2cn(Cc3cccc(C(C)(C)O)n3)nn2)nc(N)n1 ; MOLT-4 leukemia; reported TGI was > 100 µM

Test item CC(=O)O[C@H]1C(=O)[C@@]2(C)C(C(OC(=O)c3ccccc3)[C@]3(O)CC(OC(=O)[C@H](OC(=O)CCC(=O)O)C(NC(=O)c4ccccc4)c4ccccc4)C(C)=C1C3(C)C)C1(OC(C)=O)COC1C[C@@H]2OC(=O)CCC(=O)O (stereo not given in full) ; MOLT-4 leukemia; reported TGI was > 20.6 µM

Test item CCN1C2=NC(=O)N(C)C(=O)C2(Cl)C(C(SC)S(=O)(=O)c2ccc(C)cc2)c2ccccc21 (stereo not given) ; MOLT-4 leukemia; reported TGI was 13.3 µM

Test item CCOC(=O)c1c(SCCN2CCCCC2)n(-c2ccccc2)c(=S)n(-c2ccccc2)c1=O ; MOLT-4 leukemia; reported TGI was 6.7 µM

Test item Cn1cnc(/C=C/C#N)c1 ; MOLT-4 leukemia; reported TGI was > 100 µM

Test item CC(C)(C)C(=O)O[C@H]1C=C[C@@H](O)[C@@H]2[C@H]1[C@@H]1C=C[C@H]2C1 ; MOLT-4 leukemia; reported TGI was 83.8 µM

Test item C=C1CC(Cn2cc(Br)c(=O)[nH]c2=O)(c2ccc(Br)cc2)OC1=O (stereo not given) ; MOLT-4 leukemia; reported TGI was 6.13 µM

Test item C=C1[C@@H](C)[C@H]2[C@H](Cc3ccccc3)NC(=O)[C@]23OC(=O)/C=C/[C@H](O)CCC[C@@H](C)C/C=C/[C@H]3[C@@H]1O ; MOLT-4 leukemia; reported TGI was 72.3 µM

Test item CCC(C)C(NC(=O)C1CCCN1)C(=O)NC(C(=O)NCC(=O)NC(CC(N)=O)C(=O)NC(CC(C)C)C(=O)NC(CC(C)C)C(=O)NC(CCCCN)C(N)=O)C(C)C (stereo not given) (H-PIVGNLLK-NH2; configuration not given here) ; MOLT-4 leukemia; reported TGI was > 75 µM

Test item O=C1C(Cl)=C(Cl)C(=O)N1C1C2CC3CC(C2)CC1C3 (stereo not given) ; MOLT-4 leukemia; reported TGI was > 83.3 µM

* * *

- Test system: OVCAR-8 ovarian
- ASSAY_METHOD_TEXT: NCI tumour cell line growth inhibition, 48 h
So I've got a bunch of compounds here, and I need their TGI values.

The measured TGI associated with Cc1ccc(Cl)c2c(=O)cc(-c3ccccc3)[nH]c12 reads > 100 µM

The measured TGI associated with OCC1c2ccccc2-n2nc(-c3ccccc3)c(O)c21 (centres undefined) reads 37.6 µM

The measured TGI associated with COc1ccc(Nc2nc(NNC(=O)Cc3ccccc3)nc(NNC(=O)c3ccncc3)n2)cc1 reads > 10 µM

The measured TGI associated with c1ccc(Cc2nc3ccc(Nc4ncnc5ccccc45)cc3[nH]2)cc1 reads > 25 µM

The measured TGI associated with Cc1cccc(C(C)(C)C)c1NC(=O)C(=O)C(C(=O)/C=C\c1ccccc1)C1OC(=O)c2ccccc21 (centres undefined) reads > 100 µM

The measured TGI associated with COc1ccc2[nH]c(-c3ccccn3)cc(=O)c2c1 reads > 100 µM

The measured TGI associated with CC(=O)NCC1OC2COC(c3ccccc3)OC2C2N=C(c3ccccc3)OC12 (centres undefined) reads > 100 µM

The measured TGI associated with Cc1c(/C=N/NS(=O)(=O)c2ccccc2)no[n+]1[O-] reads > 100 µM

The measured TGI associated with CCCCN(CCCC)C1=Nc2ccccc2-n2c(nnc2C(=O)OCC)C1 reads > 100 µM

The measured TGI associated with Cc1ccc(NC(=O)CC2C(=O)Nc3ccccc3S2=O)cc1C (centres undefined) reads > 100 µM

The measured TGI associated with O=C(O)Cn1ncn(NC(=O)Cc2ccccc2)c1=S reads > 10 µM

The measured TGI associated with CC(=O)OC1C(=O)C(O)C(C)OC1O[C@@H]1C[C@@]2(C)[C@@H]3CC=C4[C@@H](C[C@H](O)C(=O)C4(C)C)[C@]3(C)C(=O)C[C@]2(C)[C@H]1[C@@](C)(O)C(=O)/C=C/C(C)(C)O (some centres undefined) reads > 10 µM

The measured TGI associated with O=C1NC(=S)NC(=O)C1=Cc1cc2c(cc1[N+](=O)[O-])OCO2 reads > 100 µM

The measured TGI associated with COc1c(O)c2c(c3cc(C(=O)N4CCc5c4c(O)c(OC)c4[nH]c(C(=O)N6CC7CC78C6=CC(=O)c6[nH]cc(C)c68)cc54)[nH]c13)CCN2C(N)=O (centres undefined) reads 0.00265 µM

The measured TGI associated with Cc1ccc(C(=O)Nc2ccc(CN3CCN(C)CC3)c(C(F)(F)F)c2)cc1C#Cc1cnc(N)cc1C#N reads 1.15 µM

The measured TGI associated with C/C(=N\NC(=O)c1ccncc1)c1cccc(C(F)(F)F)c1 reads > 10 µM

The measured TGI associated with NC(=O)c1cnc(N[C@@H]2CCCC[C@@H]2N)nc1Nc1cccc(-n2nccn2)c1 reads 20 µM

The measured TGI associated with C=C(C)C(=O)O[C@H]1CC2(CO)O[C@@H]2CC/C(COC(C)=O)=C/C2OC(=O)C(=C)[C@@H]21 (some centres undefined) reads 49.8 µM

The measured TGI associated with CCC1(O)CC(O)c2c(O)c3c(c(O)c2C1C(=O)OC)C(=O)c1cccc(O)c1C3=O (centres undefined) reads 5.88 µM

The measured TGI associated with C(=N\Nc1ccccn1)/c1ccccn1 reads > 100 µM

The measured TGI associated with COC(C[C@H]1CCCC[C@]1(O)/C(=C\CO[Si](C(C)C)(C(C)C)C(C)C)Sc1ccccc1)OC reads > 100 µM

The measured TGI associated with C[C@]12CCC3[C@@H](C[C@@H]4SC(Nc5ccccc5)=N[C@@]45CC(=O)CC[C@]35C)[C@@H]1CCC2=O (some centres undefined) reads > 100 µM

The measured TGI associated with CC(=O)Nc1ccc(/C=C/[N+](=O)[O-])cc1 reads 15.4 µM

The measured TGI associated with Cn1c(=O)[nH]n(-c2ccc3ccccc3c2)c1=O reads > 100 µM

The measured TGI associated with Cc1cc(=O)[nH]c(NN2C(Cl)C(=O)C2c2ccco2)n1 (centres undefined) reads > 100 µM

The measured TGI associated with COc1ccc(/C=C/C(=O)c2cc3c(N)c(C(=O)Nc4ccccc4Cl)sc3nc2C)cc1 reads 11 µM

The measured TGI associated with CCn1c(SCc2nnc(Nc3ccccc3)s2)nc2ccccc2c1=O reads 5.09 µM

The measured TGI associated with NNc1nnc(-c2ccccc2)nc1Cc1ccccc1 reads 39.1 µM

The measured TGI associated with Cc1c(C#N)cccc1-c1cc(-c2cn(Cc3cccc(C(C)(C)O)n3)nn2)nc(N)n1 reads > 100 µM

The measured TGI associated with O=c1[nH]nc(N/N=C\c2ccc(Cl)cc2)c2ccccc12 reads 54.8 µM

The measured TGI associated with C/C=C\C(CC(=O)NCCc1c[nH]c2ccccc12)CC(=O)OC (centres undefined) reads > 100 µM

The measured TGI associated with CCOc1ccccc1N=NC1C(=O)N(C(=O)CC(=O)Nc2ccccc2OC)N=C1C (centres undefined) reads > 100 µM

The measured TGI associated with C[C@@H]1C=C(CCCCCCCCCCC[C@H](O)[C@@H]2CCC(=O)O2)C(=O)O1 reads 69 µM

The measured TGI associated with Clc1ccc(Cc2nc3ccccc3nc2-c2cccc(Cl)c2)cc1 reads 14.2 µM

Reference source for all entries: PubChem BioAssay (NCI)
